Target: MAGUK GK domain
Assay: ITC
Positions of bridges follow the written chain, without caps; N, C: chain ends. Non-standard residues stand in square brackets, D forms with d. No end group written: not given here. Lys(5-OH) = 5-hydroxyl lysine
Outcome Measure: pKd
// returns pKd (minus log10 of molar concentration), number only

## Task I would be grateful if you could share the reported pKd for ARRDEYL[Lys(5-OH)]AIQ-NH2 (lactam 4-8) .
## Result 5.23

These entries and their values trace back to patent US20170152286A1.
